Source listed as ChEMBL document CHEMBL1153898.

- target_under_test: Serine/threonine-protein kinase pim-1 (Homo sapiens, UniProt P11309)
- Sequence (P11309 whole entry): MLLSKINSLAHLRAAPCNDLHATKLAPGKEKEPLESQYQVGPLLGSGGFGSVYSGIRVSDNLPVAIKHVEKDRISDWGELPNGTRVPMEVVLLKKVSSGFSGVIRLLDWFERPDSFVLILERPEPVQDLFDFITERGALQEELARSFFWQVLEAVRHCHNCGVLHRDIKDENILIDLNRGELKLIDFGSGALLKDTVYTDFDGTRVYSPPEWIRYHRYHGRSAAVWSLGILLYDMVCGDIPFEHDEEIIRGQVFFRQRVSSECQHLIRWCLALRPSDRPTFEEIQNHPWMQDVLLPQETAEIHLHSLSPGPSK
- run_description: Inhibition of human recombinant Pim1 expressed in insect cells by HTRF
// pIC50 lookup, one value per entry
# pIC50 = -log10(concentration in molar units)

Below, each entry is followed by its recorded pIC50 result.
compound	pIC50
O/N=C/c1ccccc1OCC(O)Cn1c2ccccc2c2ccccc21 (stereo not drawn)	4.80
CN(C)CCCn1cc(C2=C(c3cn(C)c4ccccc34)C(=O)NC2=O)c2ccccc21	6.82

Below: the item to evaluate.
Exercise: // query pIC50 value for entry CN1C2C=C(N(CCc3c[nH]c4ccccc34)C(=O)c3ccc(Cl)cc3)CCC1CC2 (stereo not drawn)
Key: 5.68
